B1: F1*; the commonest letter at each place (parent)
chain: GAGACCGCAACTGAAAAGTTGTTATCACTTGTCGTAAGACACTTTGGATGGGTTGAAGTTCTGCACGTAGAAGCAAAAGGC

Variants of: B1
Assay: fraction ligated after 30 min (ligated reads / total reads); higher = more ligase activity
Conditions: with F1*sub RNA substrate (template-directed ligation), 42 °C
Decision: fraction ligated compared against 0.8; not below it gives Satisfied, below it gives Not satisfied.

Worked cases, answers included:
T44A G55T	Satisfied
T30C T49A	Not satisfied
T29C A56C	Not satisfied
A39T A48C	Not satisfied
C26G G38C	Not satisfied

Test whether the variant A24T A56T records fraction ligated of 0.8 or higher. Not satisfied

Is the recorded value of fraction ligated equal to or greater than 0.8 for this variant? T25C G55T Not satisfied
